Cited source: paper PMC4354947

test system: human eNPP1; assay: Resistance to degradation by human eNPP1; assay type: in vitro ADME; conditions: after 20 min, 37 °C, pH 8.5
Listed compounds paired with reported % hydrolysis of human eNPP1
Write it as a number; the unit % goes unstated.

The following compounds have reported results that may help.
[BH3-][P@@](=O)(OC[C@H]1O[C@@H](n2cnc3c(N)ncnc32)[C@H](O)[C@@H]1O)OP(=O)([O-])[O-].[Na+].[Na+].[Na+] : 5
Nc1ncnc2c1ncn2[C@@H]1O[C@H](COP(=O)(O)OP(=O)(O)O)[C@@H](O)[C@H]1O [ADP, adenosine 5′ diphosphate, reference compound] : 25
[BH3-][P@@](=O)(OC[C@H]1O[C@@H](n2cnc3c(N)nc(SC)nc32)[C@H](O)[C@@H]1O)OP(=O)([O-])[O-].[Na+].[Na+].[Na+] : 4

Query: Specify % hydrolysis of human eNPP1 for CSc1nc(N)c2ncn([C@@H]3O[C@H](COP(=O)(O)OP(=O)(O)O)[C@@H](O)[C@H]3O)c2n1 [2-MeS-ADP, reference compound] and stop.
Response: 16
